Target: mouse CD38 (Mus musculus, UniProt P56528)
Sequence (P56528 1-304): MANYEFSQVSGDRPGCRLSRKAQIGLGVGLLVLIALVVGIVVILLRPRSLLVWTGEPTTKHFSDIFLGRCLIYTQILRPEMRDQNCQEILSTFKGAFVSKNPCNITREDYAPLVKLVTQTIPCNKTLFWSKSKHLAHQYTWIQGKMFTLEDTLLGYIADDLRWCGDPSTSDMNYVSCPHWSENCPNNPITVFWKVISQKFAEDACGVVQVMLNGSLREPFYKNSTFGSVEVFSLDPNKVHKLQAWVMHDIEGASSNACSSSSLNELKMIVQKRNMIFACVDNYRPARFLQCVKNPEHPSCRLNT
Assay: mouse recombinant CD38 enzyme assay (hydrolysis of NAD+)
Format: biochemical
Settings: read-out: mCD38 BioChem IC50
Assay readout: IC50 (µM)

A: Cn1cncc1-c1ncc(F)c(C(=O)Nc2ccc(OC(F)F)nc2)n1
B: O=C(N[C@H]1CC[C@H](O)CC1)c1cc(C(F)(F)F)cc(-n2ccnc2)n1
Exercise: Parameter check: reported IC50 is higher for which label, A or B ? Label of pick, please.
Solution: B
(B: 0.012 µM, A: 0.0015 µM)

1: CO[C@H]1CC[C@H](NC(=O)c2cc([C@H]3CC[C@H](OC)CC3)nc(-c3cncn3C)n2)CC1
2: Cn1cncc1-c1ccnc(C(=O)N[C@H]2CC[C@H](C)CC2)n1
Exercise: Rank 1 against 2 by their IC50 values and give the higher one. Answer by stating the label of the chosen item.
Solution: 2
(2: 0.013 µM, 1: 0.002 µM)

----------
Biological target: human CD38 (Homo sapiens, UniProt P28907)
Sequence (P28907 1-300): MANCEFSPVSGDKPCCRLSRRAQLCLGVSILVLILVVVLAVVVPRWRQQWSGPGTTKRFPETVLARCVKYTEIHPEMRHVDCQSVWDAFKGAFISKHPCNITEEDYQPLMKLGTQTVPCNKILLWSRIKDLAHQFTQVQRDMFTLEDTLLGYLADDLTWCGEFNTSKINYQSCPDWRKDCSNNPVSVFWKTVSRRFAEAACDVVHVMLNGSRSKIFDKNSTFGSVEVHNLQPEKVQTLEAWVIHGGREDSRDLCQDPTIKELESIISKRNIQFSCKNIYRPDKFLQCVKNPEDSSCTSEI
Experiment: human recombinant CD38 enzyme assay (hydrolysis of NAD+)
Details: human recombinant CD38, 0.4 nM enzyme, 62.5 μM NAD+; read-out: hCD38 BioChem IC50
Assay readout: IC50 (µM)

Record excerpt, results attached:
INSERT INTO assay_data (compound, value_measured) VALUES
  ('O=C(Nc1ccc(C(F)(F)F)nc1)c1cc(C(F)(F)F)nc(-c2cncs2)n1 [Compound 115]', 1.26),
  ('Cn1cncc1-c1nc(C(=O)N[C@H]2CC[C@H](C(F)F)CC2)cc(C(F)(F)F)n1 [Compound 152]', 0.013),
  ('Cn1cncc1-c1ncc(F)c(C(=O)N[C@H]2CC[C@H](OC(F)(F)F)CC2)n1 [Compound 340]', 0.0119),
  ('COCCO[C@H]1CC[C@H](NC(=O)c2cccc(-n3ccnc3)n2)CC1 [Compound 14]', 0.091);

P: CO[C@H]1CC[C@H](NC(=O)c2cc(N3CCCC3)cc(-n3ccnc3)n2)CC1 [Compound 180]
Q: CO[C@H]1CC[C@H](NC(=O)c2cc(C(C)C)nc(-n3ccnc3)n2)CC1 [Compound 167]
R: Cc1cccc(NC(=O)c2cccc(-n3ccnc3)n2)n1 [Compound 33]
S: CO[C@H]1CC[C@H](NC(=O)c2cc([C@H]3CC[C@H](OC)CC3)nc(-c3cncn3C)n2)CC1 [Compound 316]
Exercise: Order the records, beginning with the lowest IC50 and ending with the highest. Output spec: labels arranged per the requested ranking.
Solution: S, P, Q, R

----------
Biological target: mouse CD38 (Mus musculus, UniProt P56528)
Sequence (P56528 1-304): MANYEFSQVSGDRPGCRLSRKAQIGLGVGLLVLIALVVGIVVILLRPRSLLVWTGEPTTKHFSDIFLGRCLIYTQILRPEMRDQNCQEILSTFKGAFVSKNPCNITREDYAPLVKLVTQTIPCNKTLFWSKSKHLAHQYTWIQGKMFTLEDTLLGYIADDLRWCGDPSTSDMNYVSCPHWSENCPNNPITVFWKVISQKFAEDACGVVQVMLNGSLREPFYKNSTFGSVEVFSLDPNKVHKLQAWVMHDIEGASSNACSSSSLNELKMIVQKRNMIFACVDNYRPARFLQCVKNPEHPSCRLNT
Experiment: mouse recombinant CD38 enzyme assay (hydrolysis of NAD+)
Details: read-out: mCD38 BioChem IC50
Assay readout: IC50 (nM)

Here's what some known entries look like.
INSERT INTO assay_data (entry_smiles, assay_readout, value_measured) VALUES
  ('C[C@H]1CC[C@H](NC(=O)c2nccc(-n3ccnc3)n2)CC1', 'IC50', 23),
  ('O=C(Nc1ccccn1)c1cc(-n2ccnc2)ccn1', 'IC50', 491),
  ('Cc1cnc(-c2cncn2C)nc1C(=O)N[C@H]1CC[C@H](OC(F)F)CC1', 'IC50', 13.5);

A: O=C(Nc1ccc(C(F)F)nc1)c1cccc(-n2ccnc2)n1
B: NC(=O)c1cn(-c2cccc(C(=O)Nc3ccc(C(F)(F)F)nc3)n2)cn1
Exercise: Between the entries labeled A and B , whose measured IC50 is lower? // caller expects the label of the chosen entry
Solution: A

----------
Biological target: mouse CD38 (Mus musculus, UniProt P56528)
Experiment: mouse recombinant CD38 enzyme assay (hydrolysis of NAD+)
Conditions: read-out: mCD38 BioChem IC50
pIC50: −log10 of the molar value.
Assay readout: pIC50

INSERT INTO results (entry_smiles, assay_readout, value_measured) VALUES
  ('Cc1cc(C(F)(F)F)ncc1NC(=O)c1cccc(-n2ccnc2)n1', 'pIC50', 6.96);

A: Cc1cc(C(=O)N[C@H]2CC[C@H](C)CC2)nc(-c2cncn2C)n1
B: CC(C)c1cc(C(=O)Nc2ccc(C(F)F)nc2)nc(-n2ccnc2)n1
C: O=C(NC12CC(C1)C2)c1cccc(-n2ccnc2)n1
D: O=C(N[C@H]1CC[C@H](O)CC1)c1nccc(-n2ccnc2)n1
Exercise: Descending sort on pIC50 required. Returns: the labels listed in the requested order.
Solution: A, B, D, C

----------
Biological target: UniProtKB P56528
Assay: mouse recombinant CD38 enzyme assay (hydrolysis of NAD+)
Conditions: read-out: mCD38 BioChem IC50
Description: Compounds described herein were assayed for their ability to inhibit the hydrolysis of NAD+ by the protein CD38. […] Dose responses were measured using an assay to detect the hydrolysis of NAD+. […] Subsequent detection of remaining NAD+ was determined by first converting NAD+ to NADH using alcohol dehydrogenase, then using the resulting NADH to reduce resazurine to the fluorescent product resorufin. […] The plates were read for fluorescence (Excitation/Emission=540 nm/590 nm) using an EnVision plate reader. […]
pIC50: −log10 of the molar value.
Assay readout: pIC50

INSERT INTO results (entry_smiles, value_measured) VALUES
  ('Cn1cncc1-c1nc(C(=O)N[C@H]2CC[C@H](OC(F)(F)F)CC2)cc(C2CCOCC2)n1', 8.27),
  ('Cn1cncc1-c1nc(C(=O)NC2CCC(F)(F)CC2)cc(C2CCOCC2)n1', 8.72),
  ('Cc1ccc(NC(=O)c2cccc(-n3ccnc3)n2)cn1', 8.10),
  ('Cn1cncc1-c1ncc(F)c(C(=O)N[C@H]2CC[C@H](OC(F)(F)F)CC2)n1', 8.20);

a: Cn1cncc1-c1ccnc(C(=O)N[C@H]2CC[C@](O)(c3ccccc3)CC2)n1
b: CO[C@H]1CC[C@H](NC(=O)c2nc(-c3cncn3C)ncc2C)CC1
Exercise: Sorting ascending by pIC50, which comes first: a or b ? Indicate which entry you chose by stating its label.
Solution: a

I: O=C(N[C@H]1CC[C@](O)(c2ccccc2)CC1)c1nccc(-n2ccnc2)n1
II: COCCO[C@H]1CC[C@H](NC(=O)c2cc(C)nc(-c3cncn3C)n2)CC1
Exercise: Lower pIC50: I or II ? Choose, then provide that item's label.
Solution: I

----------
Target: CYP2D6 (Homo sapiens)
Construct: from tissue; host or cells: human liver microsomes (pooled in the time-dependent assay)
Sequence (P10635 whole entry): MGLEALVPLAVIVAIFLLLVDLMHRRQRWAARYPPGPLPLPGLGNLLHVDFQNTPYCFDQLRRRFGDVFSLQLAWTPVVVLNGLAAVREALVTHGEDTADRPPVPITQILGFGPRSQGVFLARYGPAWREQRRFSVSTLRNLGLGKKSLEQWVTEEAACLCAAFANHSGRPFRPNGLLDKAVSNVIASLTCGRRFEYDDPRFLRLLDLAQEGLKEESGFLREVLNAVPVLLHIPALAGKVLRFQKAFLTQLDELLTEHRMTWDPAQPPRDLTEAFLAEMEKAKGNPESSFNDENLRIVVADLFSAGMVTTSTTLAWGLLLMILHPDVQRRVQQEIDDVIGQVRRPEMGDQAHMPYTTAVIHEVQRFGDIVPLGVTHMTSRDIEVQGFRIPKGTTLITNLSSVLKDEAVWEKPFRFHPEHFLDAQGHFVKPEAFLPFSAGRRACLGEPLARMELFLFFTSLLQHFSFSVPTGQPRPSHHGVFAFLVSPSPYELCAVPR
Test: direct inhibition of CYP450 in human liver microsomes
Format: in vitro ADME
Conditions: 10 uM, % of non-inhibited control, read-out: CYP2D6 T0 % activity
Assay readout: activity at 10 µM (%)

INSERT INTO results (compound, value_measured) VALUES
  ('[2H]c1nc([2H])n(-c2nc(C)cc(C(=O)N[C@H]3CC[C@H](OCCOC)CC3)n2)c1[2H] [Comparator Compound A, reference compound]', 82),
  ('Cn1cncc1-c1ccnc(C(=O)Nc2ccc(C(C)(C)O)nc2)n1 [Compound 250]', 86),
  ('CO[C@H]1CC[C@H](NC(=O)c2cc(C3CCC(F)(F)CC3)nc(-c3cncn3C)n2)CC1 [Compound 289]', 98),
  ('CO[C@H]1CC[C@H](NC(=O)c2cc(C3(C)COC3)nc(-c3cncn3C)n2)CC1 [Compound 295]', 79),
  ('CC(C)(O)c1ccc(NC(=O)c2nccc(-n3ccnc3)n2)cn1 [Compound 249]', 103),
  ('CO[C@H]1CC[C@H](NC(=O)c2nccc(-n3ccnc3)n2)CC1 [Compound 145]', 73),
  ('Cn1cncc1-c1ccnc(C(=O)N[C@H]2CC[C@H](O)CC2)n1 [Compound 256]', 87);
